Values were extracted from patent US20230119479A1.

List of log10 of IC50 values.
Biological target: HDAC2 Human recombinant C-terminal FLAG-tag (Homo sapiens)
Construct: FLAG (C); purchased BPS Bioscience 50052
Assay: Measurement of HDAC2 enzyme inhibitory activity (HTRF)
Type: biochemical
Conditions: recombinant HDAC2, H3K9ac peptide, 3 hours room temperature; read-out: HDAC2 IC50
measured endpoint: log10 of IC50 (log10 of the value in nM)

[
  {
    "sample smiles": "Cn1cc(-c2ccc(N)c(NC(=O)c3cnc(OCC(F)F)cn3)c2)cn1",
    "data value": 2.40
  },
  {
    "sample smiles": "Cn1cc(-c2cnc(C(=O)Nc3cc(-c4ccco4)ccc3N)cn2)cn1",
    "data value": 2.08
  },
  {
    "sample smiles": "COc1ccc(C(=O)Nc2cc(-c3ccc(F)nc3)ccc2N)nn1",
    "data value": 2.18
  },
  {
    "sample smiles": "Nc1ccc(-c2ccc(F)nc2)cc1NC(=O)c1cnc(NCc2ccccn2)cn1",
    "data value": 1.60
  },
  {
    "sample smiles": "Cn1cc(-c2ccc(N)c(NC(=O)c3ccc(Cl)nn3)c2)cn1",
    "data value": 2.99
  },
  {
    "sample smiles": "COCCOc1cnc(C(=O)Nc2nc(-c3ccccc3)ccc2N)cn1",
    "data value": 2.93
  },
  {
    "sample smiles": "Nc1ccc(-n2cccc2)nc1NC(=O)c1cnc(C2CC2)cn1",
    "data value": 2.54
  },
  {
    "sample smiles": "Cn1cc(-c2cc(C(=O)Nc3cc(-c4cncs4)ccc3N)no2)cn1",
    "data value": 1.74
  },
  {
    "sample smiles": "Cn1cc(-c2ccc(C(=O)Nc3nc(-c4cccs4)ccc3N)nn2)cn1",
    "data value": 2.36
  },
  {
    "sample smiles": "Nc1ccc(-c2ccc(F)nc2)cc1NC(=O)c1cc2ccncc2cn1",
    "data value": 2.15
  },
  {
    "sample smiles": "Cn1cc(-c2cnc(C(=O)Nc3cc(-c4cccs4)ccc3N)nc2)cn1",
    "data value": 2.30
  },
  {
    "sample smiles": "CN(C)c1cnc(C(=O)Nc2cc(-c3cnco3)ccc2N)cn1",
    "data value": 1.78
  },
  {
    "sample smiles": "CCOc1cnc(C(=O)Nc2cc(-c3ccc(F)nc3)ccc2N)cn1",
    "data value": 2.15
  },
  {
    "sample smiles": "Cn1cc(-c2ccc(N)c(NC(=O)c3cnc(N4CCC4)cn3)c2)cn1",
    "data value": 2.18
  },
  {
    "sample smiles": "Cc1ccc(C(=O)Nc2cc(-c3cnn(C)c3)ccc2N)nn1",
    "data value": 2.76
  },
  {
    "sample smiles": "Cn1cc(-c2ccc(C(=O)Nc3cc(-c4ccco4)ccc3N)nc2)nn1",
    "data value": 1.73
  },
  {
    "sample smiles": "CC(=O)N(C)c1cnc(C(=O)Nc2cc(-c3ccc(F)nc3)ccc2N)cn1",
    "data value": 2.34
  },
  {
    "sample smiles": "Cn1cc(-c2cnc(C(=O)Nc3nc(-c4ccccc4)ccc3N)cn2)cn1",
    "data value": 2.62
  }
]

----------
Target: HDAC2 Human recombinant C-terminal FLAG-tag (Homo sapiens, UniProt Q92769)
Construct: FLAG (C); purchased BPS Bioscience 50052
Sequence (Q92769 whole entry): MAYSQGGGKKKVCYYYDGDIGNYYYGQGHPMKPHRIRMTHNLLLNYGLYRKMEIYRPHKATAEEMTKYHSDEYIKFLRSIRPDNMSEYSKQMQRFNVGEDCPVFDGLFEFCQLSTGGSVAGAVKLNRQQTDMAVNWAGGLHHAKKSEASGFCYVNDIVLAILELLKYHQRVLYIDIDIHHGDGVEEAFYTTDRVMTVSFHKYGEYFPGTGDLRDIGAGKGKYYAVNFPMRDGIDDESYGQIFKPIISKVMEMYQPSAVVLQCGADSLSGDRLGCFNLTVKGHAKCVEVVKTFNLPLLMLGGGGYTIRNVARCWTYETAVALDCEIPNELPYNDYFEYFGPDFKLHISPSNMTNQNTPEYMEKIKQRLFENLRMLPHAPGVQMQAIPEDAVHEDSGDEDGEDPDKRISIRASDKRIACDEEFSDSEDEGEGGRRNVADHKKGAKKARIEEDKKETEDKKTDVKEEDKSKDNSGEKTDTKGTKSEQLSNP
Experiment: Measurement of HDAC2 enzyme inhibitory activity (HTRF)
Type: biochemical
Details: recombinant HDAC2, H3K9ac peptide, 3 hours room temperature; read-out: HDAC2 IC50
measured endpoint: log10(IC50) (log10 of the value in nM)

[
  {
    "compound": "Cc1cnc(C(=O)Nc2cc(-c3ccc(F)nc3)ccc2N)cn1 [Compound I-123]",
    "log10(IC50)": 2.15
  },
  {
    "compound": "CN(C)c1cnc(C(=O)Nc2nc(-c3ccc(F)nc3)ccc2N)cn1 [Compound I-247]",
    "log10(IC50)": 2.58
  },
  {
    "compound": "N#Cc1ccc(C(=O)Nc2cc(-c3ccc(F)nc3)ccc2N)nc1 [Compound I-092]",
    "log10(IC50)": 2.40
  },
  {
    "compound": "CCNc1cnc(C(=O)Nc2cc(-c3ccc(F)nc3)ccc2N)cn1 [Compound I-285]",
    "log10(IC50)": 1.60
  },
  {
    "compound": "Nc1ccc(-c2ccc(F)nc2)cc1NC(=O)c1cnc(OCC2CC2)cn1 [Compound I-122]",
    "log10(IC50)": 2.40
  },
  {
    "compound": "Nc1ccc(-c2cncs2)cc1NC(=O)c1noc2ccccc12 [Compound I-195]",
    "log10(IC50)": 2.46
  },
  {
    "compound": "C=Cc1ccc(C(=O)Nc2cc(-c3ccc(F)nc3)ccc2N)nc1 [Compound I-131]",
    "log10(IC50)": 2.26
  },
  {
    "compound": "Nc1ccc(-n2cccc2)nc1NC(=O)c1ccc2c(n1)OCC(=O)N2 [Compound I-234]",
    "log10(IC50)": 2.38
  },
  {
    "compound": "CN(C)c1cnc(C(=O)Nc2cc(-c3cnn(C)c3)ccc2N)cn1 [Compound I-179]",
    "log10(IC50)": 1.91
  },
  {
    "compound": "COCc1ccc(C(=O)Nc2cc(-c3cnn(C)c3)ccc2N)nc1 [Compound I-207]",
    "log10(IC50)": 2.40
  },
  {
    "compound": "Nc1ccc(-c2ccc(F)nc2)cc1NC(=O)c1cccnn1 [Compound I-115]",
    "log10(IC50)": 2.64
  },
  {
    "compound": "CCc1ccc(C(=O)Nc2cc(-c3cnn(C)c3)ccc2N)nc1 [Compound I-175]",
    "log10(IC50)": 2.23
  },
  {
    "compound": "COc1ccc(C(=O)Nc2cc(-c3ccc(F)nc3)ccc2N)nc1 [Compound I-124]",
    "log10(IC50)": 2.20
  },
  {
    "compound": "Cc1ncc(-c2ccc(N)c(NC(=O)c3ccc(-c4cnn(C)c4)cn3)c2)s1 [Compound I-032]",
    "log10(IC50)": 2.15
  },
  {
    "compound": "CC(C)c1cnc(C(=O)Nc2cc(-c3cnn(C)c3)ccc2N)cn1 [Compound I-252]",
    "log10(IC50)": 2.23
  },
  {
    "compound": "CC(C)Oc1ccc(C(=O)Nc2cc(-c3cnn(C)c3)ccc2N)nc1 [Compound I-163]",
    "log10(IC50)": 2.32
  },
  {
    "compound": "Cn1cc(-c2ccc(C(=O)Nc3cc(-c4cncs4)ccc3N)nc2)nn1 [Compound I-046]",
    "log10(IC50)": 1.73
  },
  {
    "compound": "CC(C)Nc1ccc(C(=O)Nc2cc(-c3ccc(F)nc3)ccc2N)nn1 [Compound I-273]",
    "log10(IC50)": 2.36
  },
  {
    "compound": "CC(C)(C)c1cnc(C(=O)Nc2cc(-c3ccc(F)nc3)ccc2N)cn1 [Compound I-203]",
    "log10(IC50)": 2.38
  },
  {
    "compound": "Nc1ccc(-c2ccc(F)nc2)cc1NC(=O)c1cnc(NCC(F)(F)F)cn1 [Compound I-288]",
    "log10(IC50)": 2.36
  },
  {
    "compound": "COCCOc1ccc(C(=O)Nc2cc(-c3ccc(F)nc3)ccc2N)nc1 [Compound I-127]",
    "log10(IC50)": 2.04
  },
  {
    "compound": "Nc1ccc(-c2ccc(F)nc2)cc1NC(=O)c1cnccn1 [Compound I-114]",
    "log10(IC50)": 2.41
  },
  {
    "compound": "Cn1cc(-c2ccc(C(=O)Nc3cc(-c4cccs4)ccc3N)nn2)cn1 [Compound I-027]",
    "log10(IC50)": 2.11
  },
  {
    "compound": "Nc1ccc(-n2ccc(F)c2)cc1NC(=O)c1cnc(N2CCOCC2)cn1 [Compound I-267]",
    "log10(IC50)": 2.00
  },
  {
    "compound": "Nc1ccc(-c2ccc(F)nc2)cc1NC(=O)c1cnc(Cl)cn1 [Compound I-239]",
    "log10(IC50)": 2.36
  },
  {
    "compound": "CN(C)c1cnc(C(=O)Nc2nc(-c3cnn(C)c3)ccc2N)cn1 [Compound I-228]",
    "log10(IC50)": 2.80
  },
  {
    "compound": "Cn1cc(-c2cnc(C(=O)Nc3nc(-c4cccs4)ccc3N)c(F)c2)cn1 [Compound I-022]",
    "log10(IC50)": 2.67
  },
  {
    "compound": "Cc1ccc(C(=O)Nc2cc(-c3ccc(F)nc3)ccc2N)nc1 [Compound I-154]",
    "log10(IC50)": 2.08
  },
  {
    "compound": "CC(C)Oc1ccc(C(=O)Nc2cc(-c3ccc(F)nc3)ccc2N)nc1 [Compound I-162]",
    "log10(IC50)": 2.30
  },
  {
    "compound": "Cn1cc(-c2ccc(C(=O)Nc3cc(-n4cccn4)ccc3N)nc2)cn1 [Compound I-063]",
    "log10(IC50)": 2.43
  },
  {
    "compound": "Nc1ccc(-c2cncs2)cc1NC(=O)c1cc2c(cn1)OC(F)(F)CO2 [Compound I-070]",
    "log10(IC50)": 2.38
  }
]
